- Study System: T1, B7H3 (CD276) on MC38-CD276+ cells
- T1 construct: whole, on cells; MC38-CD276KO cells served as the negative control; also called MC38-B7H3+
- T1 sequence (Q5ZPR3 1-534, species assumed, looked up): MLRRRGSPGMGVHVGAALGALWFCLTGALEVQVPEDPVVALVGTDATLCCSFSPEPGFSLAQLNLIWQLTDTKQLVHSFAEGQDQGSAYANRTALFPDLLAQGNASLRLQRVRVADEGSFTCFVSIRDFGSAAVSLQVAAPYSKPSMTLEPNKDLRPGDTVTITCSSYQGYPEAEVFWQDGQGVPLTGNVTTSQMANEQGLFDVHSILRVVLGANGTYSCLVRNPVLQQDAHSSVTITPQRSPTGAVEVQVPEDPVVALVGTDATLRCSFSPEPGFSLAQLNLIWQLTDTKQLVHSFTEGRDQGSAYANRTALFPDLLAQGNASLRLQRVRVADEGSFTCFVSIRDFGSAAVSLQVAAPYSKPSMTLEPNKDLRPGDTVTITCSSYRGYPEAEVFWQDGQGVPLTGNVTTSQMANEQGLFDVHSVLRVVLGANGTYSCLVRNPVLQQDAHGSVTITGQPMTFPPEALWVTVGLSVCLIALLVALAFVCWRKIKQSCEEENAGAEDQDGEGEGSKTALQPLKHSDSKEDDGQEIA
- Assay Comment: flow cytometry on MC38-CD276+ cells, VHH at 0.5 ug/ml
Reported Endpoint: Positive rates (%)
Respond with the bare value in %.

Exam item: What does the data say about its Positive rates? Entry: RWC4 (VHH, Camel VHH; tag not described; also called camel antibody RWC4) VHH: EVQLVESGGGSVQAGGSLRLSCVASEDSTSAMCMGWFRQAPGKEREGVACINPTGEVTWYGDSVKGRFTISRDTVKKIVYLQMNSLKPEDTAMYYCAARVTYGGDWSTDTDYEYWGQGTQVTVSS
Marked response: 14.4

Exam item: RWG8 (VHH, Camel VHH; tag not described; also called camel antibody RWG8) VHH: DVQLVESGGGLVQPGGSLRLSCAASGFTFSRYWMGWFRQAPGKGVEWVSTINSGGGSTYYADSVKGRFTISRDNAKNTLYLQLNNLKTEDTAMYYCAKEQWRTGSRGQGTQVTVSS , same question.
Marked response: 0.1
